Measured composite z-score of individual entries
Test system: PRMT1 (protein arginine N-methyltransferase 1)
Assay: PRMT1 binders on small-molecule microarrays, primary screen, biochemical, small-molecule microarray, 635 nm fluorescence (AID 1088);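 also: binding of Prmt1 protein to compounds spotted on small-molecule microarray slides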
Settings: small-molecule microarray binding, higher = more signal
Form field (numeric): enter value without unit.

molecule	composite z-score
CC(C)CCN1CCc2nc(COc3ccccc3)c3c(c2C1)CO[C@@H](C)C3	0.0135
CC(=O)OC[C@H]1O[C@H](C#Cc2ccccc2)C=C[C@@H]1OC(C)=O	0.48
O=C1[C@H]2[C@H]3[C@H](O)[C@H](O)CC(=NOCc4ccccc4)[C@@H]3CC[C@H]2C(=O)N1c1ccc(F)cc1F	-0.755
O=C1C[C@@H](O)[C@@H](O)[C@@H]2[C@@H]3C(=O)N(C[C@@H]4CCCO4)C(=O)[C@@H]3CC[C@@H]12	0.282
C[C@@H]1C=CCC(=O)OC[C@H]2O[C@@H](C=C[C@@H]2O)[C@H](C)C=CCC(=O)OC1	1.55
O=C1C=C[C@@H](O)[C@@H]2[C@@H]3C(=O)N(c4ccc(F)cc4F)C(=O)[C@@H]3CC[C@@H]12	0.0661
CC(C)=CCCC(C)=CCON=C1C[C@@H](O)[C@@H](O)[C@@H]2[C@@H]3C(=O)N(c4ccc(F)cc4F)C(=O)[C@@H]3CC[C@H]12	1.54
CC(C)=CCCC(C)=CCON=C1C[C@@H](O)[C@@H](O)[C@@H]2[C@@H]3C(=O)N(Cc4ccccc4)C(=O)[C@@H]3CC[C@@H]12	1.09

Look up composite z-score for this molecule: C=C(C)C(=O)OCC1CN2[C@@H](CC[C@@H](C)[C@@H]2c2ccc(Br)cc2)C(=O)O1 (stereo not given in full) 0.855

Name the recorded composite z-score for COC(=O)[C@H](C)NC(=O)CCC1CC(OC(=O)NCc2cccc3ccccc23)CC2(CCCC(COC(=O)NCC(c3ccccc3)c3ccccc3)O2)O1 (stereo not given in full) . 1.48

Using the record for `O=C1C[C@@H](O)[C@@H](O)[C@@H]2[C@@H]3C(=O)N(c4cccc(Oc5ccccc5)c4)C(=O)[C@@H]3CC[C@H]12` , report its composite z-score. -0.129

Give the measured composite z-score of `O=c1n(Cc2cc3c(cc2Cl)OCO3)c(=O)n2n1CC[C@@H]1C(=NOC[C@@H](O)COCc3ccco3)[C@H]3O[C@H]3[C@@H](O)[C@@H]12` . 0.101

For the molecule shown here, `C=CC[C@@H]1C=C[C@H](ON=C(C)CCN2CCc3nc(-c4ccccc4)c(-c4ccccc4)cc3C2)[C@@H](CO)O1` , give the reported composite z-score. 1.55

Which composite z-score reading was recorded for the molecule `O=C1C=C[C@@H](O)[C@@H]2[C@@H]3C(=O)N(C[C@@H]4CCCO4)C(=O)[C@@H]3CC[C@@H]12` ? -0.168

Which composite z-score reading was recorded for the molecule `C[C@@H](c1ccccc1)N1C(=O)[C@H]2[C@H]3[C@H](O)[C@H](O)CC(=NOCc4ccccc4)[C@H]3CC[C@H]2C1=O` ? 1.3
